Tested on: MS2 coat protein
Test: apparent KD of MS2 coat protein; designed switch direction (-1 OFF switch, 1 ON switch): -1; higher = weaker reporter binding
Conditions: input ligand: FMN 200 uM
The sequences listed here are annotated with their apparent KD of MS2 coat protein.

{"columns": ["ORDERED_RESIDUES", "apparent KD of MS2 coat protein, nM"],
 "data": [
  ["UUUUUAUAUGAAGGAUAUACUUAACAUGAGGAUCACCCAUGUGGUGUUGUGAGUGAGUGAGUUUAGUAGAAGGUCAAGUACUUU [JMF's solution 37] (Eterna round: R96, puzzle: Exclusion NG 2)", 614],
  ["UUUUCCAGAGGAUAUGCGAAUAAAUAAAACUUUUUUUUUUAACAUGAGGAUCACCCAUGUAGAAGGCUGCUUUU [Ex2 #27] (Eterna round: R97, puzzle: Exclusion 2)", 27.1],
  ["CUGGUUCUAGGAUAUGCACUCACGAUCCUCCUUCAAUCGCAACAUGAGGAUCACCCAUGUAGAAGGAGAAAGUA [Eternabot (L1) Solution 91] (Eterna round: R97, puzzle: Exclusion 2)", 18.5]
]}

* * *

System: MS2 coat protein
Experiment: apparent KD of MS2 coat protein, switch OFF state (with FMN for OFF switches, without FMN for ON switches); designed switch direction (-1 OFF switch, 1 ON switch): -1; higher = weaker reporter binding
Details: FMN input: 0 or 200 uM; Eterna round: R93 (includes R88 designs)

{"columns": ["ORDERED_RESIDUES", "apparent KD of MS2 coat protein"],
 "data": [
  ["AAGGAUCGAGGAUAUACAUAGAUACAGAUACAUGUAGACGUACAUGAGGAUCACCCAUGUAGAAGGCGAUCAUA [AJ 27]", "255 nM"],
  ["AAGAACGAAGGAUAUACAUGAGGAUCACCCAUGUAAAAGAAAGAAAGGGAAAAGAAAAGUAGAAGGUCGAAGAA [Sekhemkheperre Osorkon I]", "31.2 nM"],
  ["AUGGUACAUGAGGAUCACCCAUGUCAGGAUAUCGGCUGUGACAUGAAAAAAAUGUUAGUGAGAAGGGACUGUAA [EX1 Malc#18 Mod 4 - Jieux - Exclusion 1]", "102 nM"]
]}

* * *

Test system: MS2 coat protein
Assay: apparent KD of MS2 coat protein; designed switch direction (-1 OFF switch, 1 ON switch): -1; higher = weaker reporter binding
Conditions: Eterna round: R95; input ligand: microRNA oligo, concentration not stated
RECORDED_ENDPOINT: apparent KD of MS2 coat protein (nM)

{"columns": ["ORDERED_RESIDUES", "RECORDED_ENDPOINT", "MEASUREMENT_UNIT", "OBSERVED_VALUE"],
 "data": [
  ["UAGAUACAUGAGGAUCACCCAUGUGAGGAUAUGAAUAAGAAUAGAUAAGAUAGUAGAAUCAGAAGGCACAAUGG [Starry Exclusion 1.2] (puzzle: Exclusion 1)", "apparent KD of MS2 coat protein", "nM", 47.4],
  ["GAAAAGGUAGGAUAUACGAAAAAAAAGGGUAGAAAAAAAACACAUGAGGAUCACCCAUGUAGAAGGACCAAAAG [salish99_ex2_r3_015] (puzzle: Exclusion 2)", "apparent KD of MS2 coat protein", "nM", 28.7],
  ["GAUUACUGCAAGCUUAGGGACAUGAGGAUCACCCAUGUUCGUCUUAUUGAUCUAGGUACGCUGACGUACCUAGAUCU [JL-sv1-2.29 Brourd mod] (puzzle: Sensor v3, turn-off variant 1)", "apparent KD of MS2 coat protein", "nM", 19.4]
]}

* * *

A collection of sequences and their measured apparent KD of K4 kissing-loop reporter
Test system: K4 kissing-loop RNA reporter;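 also: bound reporter read as fluorescence of individual clusters on recovered sequencing chips by microscopy, with normalized cluster intensities fitted with a binding model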
Assay: apparent KD of K4 kissing-loop reporter; higher = weaker reporter binding
Conditions: Eterna round: R107; input ligand: arginine 13.2 mM

{"columns": ["ORDERED_RESIDUES", "apparent KD of K4 kissing-loop reporter (nM)"],
 "data": [
  ["CUUCGAUUAACAGAUACCAGUCACUUGGGAGCCACACACAAGUGAGUGAUGUUCACUUGUGACCCUUGGCAGCUGUUAGUCGAAG [#04 K4 Theophylline B Exclusion]", 86.5],
  ["CAUACGCAUGGAGGAUAUGAGAUUUUUCAUAUUAUUUUUUAUUCUCAGUGAUGUUGGGAUUUAUAAUCAGAAGGCCAUGUGUAUG [Ex FMN B 11]", 79.2],
  ["GAUUUAGAGGCGGCCGCCACUAGUGAUGUUAGUGAUGUUUGAUACUGAAUAUAUCUGCGUGUAGAUAGGACCGGGCCAGAUGGAG [eyerullin]", 171],
  ["CCGGCCCAGCCGGAUACCAGUGCGCCGCAGGGAACGGCGGGCCCAGAGUGAUGUUCGGGACACCCUUGGCAGCCGCCUGGGUCCU [#2 Same State - Theophylline B Attempt #29 (HarryS)]", 662],
  ["GGAGAGGUCUUGUUUGGAUGUGUUUAAUGGCGAGGACCGGUACGGCCGCCACUCGGGUGAUGUUAGUGAUGUUGAUGUAGUGAUG [wzwmullin]", 76.1],
  ["AAGUGAUGUUGUAGUGAUGUUGUGAUGUUGCAGGAUAUAUAGUGAUGUAGAAGGGUAUGUACUUAUUUGUUUUUUGAGUUAUGUU [zzazzrmullin]", 28.5],
  ["AAAGAUGCGUCGGCCGCCACUGUGAUCUACGAAAGUAGUAUGUAGAUGCAGUGAUGUUGCAUUUUCAGGACCGGGACGUAAGAUG [3rd]", 362],
  ["UGAUAGGACAGAAGGAGCGGUAGUGAUGUUACCAAAAGGAUAAGGUGUCAAAAGACACCCUACCAGGUAGGUCGCUGUCCUAUCU", 112],
  ["UUAGGAGAGGGAAGGAGCGUGAAAGAGAAAGAAUAUAGUGAUGUUAUAUAGAAGAAAGAAUCACAGGUAGGUCGCCCGGAGGAGG [SSArgB.C]", 520],
  ["GUUGUAUACUGAAGGAGCGAGUAGUGGAAACAUAAACUCAUUGCGAGUGAUGUUCGCAGUACUCAGGUAGGUCGCAGUAAUCGUA [Exclusion Arginine B Gf 10]", 315],
  ["GGUGCUGUCUGUGCCGCCCUCCUCGUCCCUCGAGGACCGGUACGGCCGCCACUCGAGUGAUGUUCGGGUAGCCAUCCCUGCCAGC [BDazzled - #20 Exc. Tryptophan A]", 328],
  ["CCGUGGAGUGAUGUUCCACGUACUACGGAUACCAGCUUUGCCAAAGGCCCUUGGCAGCCGCACGUUGCAGUGAUGUUGUGGCGCG [Same State Theophylline A G9]", 241],
  ["AAUAAUAUACAAAGGCGAACGAAUAGGGAAGGAGCGCGAUAUAACGCAGGUAGGUCGCCCAUAUUUUUAGUGAUGUUAGAGAAUA [E. Arginine A Tesla 1]", 762],
  ["GGUGACAACCAGAGGUGAUGUAUAGAAUCGCGAGGACCGGUACGGCCGCCACUCGUGAAGAGAAAGGAGUGAUGUUCCGUAAUGG [Kazoo C6]", 249],
  ["ACGUCACGUAUACUGGUGGUUUCGAUCGAUACCAGUAGCGAGAGUUACCCUUGGCAGCGACAUGAGUGAUGUUUAUGUAUGAUGA [#13 K4 Theophylline A Exclusion]", 551],
  ["UUUUUAUGCAGUGAUGUUGCUAAUAUAACAGAGGAUAUGCAUUAAUGCAGAAGGCUGAAAUACUAUACUUUAAUAAAUUAAAUUU [JR_SSFMNA_Sub014]", 109],
  ["AAAUCUUUCAGAAGGAGCGUGGAUUAUUCUUAUAUAUUUAUUACGAGUGAUGUUCGUAAUUCACAGGUAGGUCGCUGAUCAAUAA [JR_ExcArginiB_Sub006]", 105],
  ["CGUACGGUUUCUUUCUUUCCGUACGAGUGCCGAGGACCGGUACGGCCGCCACUCGCUACAGCCUAGUGAUGUUAGGCGAUUCUUU", 117],
  ["UUUUGGUACUGAGGAUAUUCGACGAAAUAUAGUGAUGUUAUAUAAGGAGGAGGAGGGUGGGAGGAAGGAGAAGGCAGAAGAGGAG [#06 K4 FMN B Exclusion]", 179],
  ["AACGUUUUGAGAAGGAGCGCGUUAAGCAGUGAUGUUGCUUUAUUUUAUCAAAUACAUAUAUCGCAGGUAGGUCGCUCAAUACGUA [JR_Nu_SSArginiB_Sub026]", 218],
  ["CUUGAUGUAGCGGCCGCCACUCUAGAUCCGCAUCGGAUGAGGUACUUGAAGUGAUGUUUUGAGGUGAGGACCGGGCUCUAAAGAA [theeternabot_sameState_KL_Trp_B_16]", 455],
  ["UACUUAUAUUUCAACUUAAAUUAUUCAGAAGGAGCGUGAUCAUUCACAGGUAGGUCGCUGAACUAGUGAUGUUAGUUUUAAUUUU [JR_Nu_ExcArginiA_Sub022]", 127],
  ["UGGAGUUGACGAAAAGUCAACUCCAGAGAAGGAGCGGACGAAAGUCCAGGUAGGUCGCUCACUACCAGUGAUGUUGGUACUAAAA", 190]
]}

Ref: the supplement of paper PMC9170038
